EXPERIMENTAL_PROTOCOL: Biodistribution studies in NMRI mice
Format: in vivo
CONDITION_SUMMARY: i.v., 60 min p.i.
Entries annotated with measured Percentage of ID, kidneys
MEASUREMENT_LABEL: Percentage of ID, kidneys (% ID)

[11CH3]Oc1ccc(C(=O)NCCc2ccc(S(N)(=O)=O)cc2)cc1 [[^11C]-(4)]	4.1
NS(=O)(=O)c1ccc(OCC[18F])cc1 [[^18F]-(5)]	3.7
[11CH3]Oc1ccc(S(N)(=O)=O)cc1 [[^11C]-(6), 4-[^11C]methoxybenzene sulfonamide]	4.1
NS(=O)(=O)c1ccc(CCNC(=O)c2ccc(OCC[18F])cc2)cc1 [[^18F]-(3)]	2.8

* * *

EXPERIMENTAL_PROTOCOL: Biodistribution studies in NMRI mice
Type: in vivo
CONDITION_SUMMARY: i.v., 60 min p.i.
Entries annotated with measured Percentage of ID, liver
MEASUREMENT_LABEL: Percentage of ID, liver (% ID)

NS(=O)(=O)c1ccc(OCC[18F])cc1 [[^18F]-(5)]	4.0
[11CH3]Oc1ccc(C(=O)NCCc2ccc(S(N)(=O)=O)cc2)cc1 [[^11C]-(4)]	9.2
[11CH3]Oc1ccc(S(N)(=O)=O)cc1 [[^11C]-(6), 4-[^11C]methoxybenzene sulfonamide]	6.1
